// reported Percent Effect for each item listed
tested on: Wolbachia pipientis; experiment: Anti-Wolbachia Cell-Based Screen; type: functional; set-up: scale not given: in the data most compounds retested in dose-response had high values; conditions: 5 µM
About 13,000 (27%) of roughly 48,000 compounds showed an effect of 50% or more. The list shows a part of the results.
Report only the number, with the unit % understood.

The following compounds have reported results that may help.
// query Indicate its recorded Percent Effect; the compound in question is CCCc1cc(N2CCCC2Cn2cc(C)cn2)n2ncnc2n1 (stereo not given)
// result -1.643

// query Indicate its recorded Percent Effect; the compound in question is `NC(=O)C1CCN(CCCNC(=O)Nc2nncs2)CC1`
// result 106.6

// query Indicate its recorded Percent Effect; the compound in question is `O=S1(=O)CCN(c2nc(C3CC3)ns2)CC1`
// result -15.72

// query Indicate its recorded Percent Effect; the compound in question is `O=C(NCc1ccccc1CN1CCCC1)Nc1nncs1`
// result 6.886

// query Indicate its recorded Percent Effect; the compound in question is Cc1nc(C)n(CC2CN(CCOc3ccccc3F)CCO2)n1 (stereo not given)
// result 5.326

New cases:
// query Indicate its recorded Percent Effect; the compound in question is CCC(C)Oc1ccc(CNCCNC(C)=O)cc1Cl (stereo not given)
// result 110

// query Indicate its recorded Percent Effect; the compound in question is `CNC(=O)[C@@H]1C[C@@H](N)CN1c1nc(N2CCCC2)nc(C)c1C`
// result 2.441
